# measurement_target: T1, ZFP SBS#1269 (synthetic)
# T1 chain: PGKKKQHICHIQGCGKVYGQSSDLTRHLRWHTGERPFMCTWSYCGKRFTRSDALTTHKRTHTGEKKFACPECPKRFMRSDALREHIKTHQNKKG
# test: EMSA
# study_conditions: tags: MBP fusion
measured_attribute: pKd
Scale note: pKd = -log10(concentration in M).

I'd like to know its pKd. The binder in question is CTGTTGGCT (dsDNA) DNA 1: CTGTTGGCT DNA 2: AGCCAACAG
7.91
